- compound: "CCC[C@H]1CC[C@H](c2ccc(CCC(F)F)cc2)CC1"
  melting point: "12 °C"
- compound: "COc1ccc([C@H]2c3[nH]c4ccccc4c3C[C@H]3C(=O)NC(=O)N23)cc1 (relative stereo)"
  melting point: "295 to 305 °C"
- compound: "O=C(O)Cn1cc(Cc2nc3c(F)c(F)cc(F)c3s2)c2cc(Cl)ccc21"
  melting point: "188 to 189 °C"
- compound: "O=C(Nc1ccccc1)c1ccc(F)c2c1CC(N(CCCc1c[nH]c3ccc(F)cc13)C1CCC1)CO2 (configuration not stated)"
  melting point: "136 °C"
- compound: "CSc1cc(C(C)(C)C)nn1C(=O)Cl"
  melting point: "64 to 66 °C"
- compound: "CC(=O)N1c2ccccc2Sc2cc(F)ccc21"
  melting point: "125 °C"
- compound: "CCc1cccc(C)c1NC(=O)CCBr"
  melting point: "149 to 150 °C"
- compound: "O=C(O)c1nnn(Cc2ccccc2)n1"
  melting point: "127 to 130 °C"
- compound: "C#Cc1ccnc(NC(C)C)n1"
  melting point: "84 to 85 °C"
- compound: "Cc1ccc(S(=O)(=O)OCC2Cc3cccc(C=CC(C)(C)C)c3O2)cc1 (configuration not stated)"
  melting point: "85 to 88 °C"
- compound: "Cc1nc(-c2ccc3c(c2)c2cc(-c4ccc(Cl)cc4Cl)c(=O)n(C)c2n3C)co1"
  melting point: "222 to 223 °C"
- compound: "Cc1cc(Oc2ccc([N+](=O)[O-])c(N(C)C(=O)OC(C)(C)C)c2)cc(C)c1NC(=O)OC(C)(C)C"
  melting point: "154 to 156 °C"
- compound: "Nc1nc2ccc(CCN3CCC(Oc4ccccc4)CC3)cc2s1"
  melting point: "164 to 167 °C"
- compound: "CC(C)C#CC1(C(F)(F)F)OCC(=O)Nc2ccc(F)c(F)c21 (configuration not stated)"
  melting point: "192 to 194 °C"
- compound: "CC=CC=NNC(=O)c1cccnc1"
  melting point: "144 to 145 °C"
- compound: "C=C(C)C(=O)Nc1ccc(NC(=O)Nc2ccc(C#N)cc2)c(O)c1"
  melting point: "247 to 249 °C"
- compound: "CC(=O)N1CCc2c(sc3nc4ccccc4n23)C1"
  melting point: "181 to 186 °C"
- compound: "O=C(c1cccnc1)N1CCCC(c2ccccc2)=N1"
  melting point: "84 to 86 °C"
- compound: "O=c1c(-c2ccccc2Cl)coc2cc(OCc3nnn[nH]3)cc(Cl)c12"
  melting point: "192 to 195 °C"
- compound: "CCOCC(=O)Nc1nc2ccccc2s1"
  melting point: "113 to 114 °C"
- compound: "COc1ccc2c(n1)CCC(=NO)C2"
  melting point: "124 to 126 °C"
- compound: "Cn1cc(C(=O)NCc2ccc(Cl)cc2)c(=O)c2cc(CN3CCOCC3)cc(C#Cc3ccccn3)c21"
  melting point: "234 to 236 °C"
- compound: "Cc1c(N)cccc1-c1cn(C)c(=O)c(Nc2ccc(C3C(=O)N(C)CCN3C)cc2)n1 (configuration not stated)"
  melting point: "133 to 134 °C"
- compound: "C=S1C(=NC(F)(F)F)C(=NC(F)(F)F)N(c2ccccc2)C1C(C)=O (configuration not stated)"
  melting point: "189 to 191 °C"
- compound: "CC(C)[C@H](OCc1ccccc1)[C@H]1[C@H]([N+](=O)[O-])[C@H](C(C)(C)C)N[C@@H]1C(=O)NCC(=O)O"
  melting point: "119 to 120 °C"
- compound: "O=C1C(Cc2ccccc2)C(C(F)(F)F)=Nc2ccccc2N1Cc1ccccc1 (configuration not stated)"
  melting point: "150 to 151 °C"
- compound: "COc1ccc([C@H](C)NC(=O)COc2cc(C(F)(F)F)c3c(-c4ccccc4)nn(C)c3n2)cc1"
  melting point: "172 to 174 °C"
- compound: "CC(=O)c1cc(F)c(O)c(F)c1"
  melting point: "141 to 143 °C"
- compound: "Nc1cnc2ccc(-c3ccccc3)cc2c1Nc1ccccc1Br"
  melting point: "174 to 177 °C"
- compound: "O=[N+]([O-])c1ccccc1Cc1n[nH]c(O)n1"
  melting point: "210 to 212 °C"
- compound: "COc1ccc(Cc2n[nH]c3c2c(=O)n(-c2ccccc2)c2ncccc32)c(OC)c1"
  melting point: "266 to 267 °C"
- compound: "COc1ccc2c(c1)OCC(NC(=O)c1cc(Cl)ccc1OC)C2 (configuration not stated)"
  melting point: "92 to 93 °C"
- compound: "Cc1c(-c2ccc3sc(=O)[nH]c3c2)nc2ncccn12"
  melting point: "> 290 °C"
- compound: "CCc1cc(C)cc(CC)c1NC(=S)NC(C)(C)CC"
  melting point: "98 to 101 °C"
- compound: "NNC1=NS(=O)(=O)c2cnccc2N1"
  melting point: "290 to 292 °C"
- compound: "Cc1[nH]c(=S)n(Nc2cccc(Cl)c2)c1-c1cccc(Cl)c1"
  melting point: "204 °C"
- compound: "CC1(C)COCC(C)(C)N1N=O"
  melting point: "47 °C"

Recorded values, source a melting point compilation (Tetko et al.; mined from patent text by program, amines drawn as free bases though some values may be those of a salt).
